Recorded self-cleavage, one value per entry.
B1: Hairpin Ribozyme (parent)
chain: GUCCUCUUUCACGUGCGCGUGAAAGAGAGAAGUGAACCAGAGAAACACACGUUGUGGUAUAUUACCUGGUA

# Variants of: B1
# METHOD SUMMARY: self-cleavage, relative activity (ratio to wild type); higher = more cleavage; co-transcriptional
Reply with the value as a number alone.

In the examples that follow, each entry is paired with its recorded self-cleavage.
• A59U U67G = 0.143
• A30C A61C = 0.251
• U8G A59C = 0.136
• A44U U63C = 0.135

Task item: Suppose we examine the variant G34A A47U ; what self-cleavage value has been reported?
Reply: 0.144

Task item: Moving on to G13A A43U
Reply: 0.144

Task item: Moving on to G29A G69C
Reply: 0.14

Task item: Moving on to C16A A45C
Reply: 0.123

Task item: Moving on to C46G U53C
Reply: 0.0868

Task item: Moving on to C18U A39U
Reply: 0.429

Task item: Moving on to U20C G69A
Reply: 0.435

Task item: Moving on to C12G A23U
Reply: 0.753
